System: SF-268 CNS
Assay: NCI tumour cell line growth inhibition, 48 h
Listed below: TGI values for each entry.

MOLECULE: O=C(O)c1cc2c(cn1)[nH]c1ccccc12
TEST_TARGET: SF-268 CNS
TGI: > 100 µM

What measured TGI goes with CC(O)C(O)C(N)CC=O (configuration not stated) ?
> 500 µM

What measured TGI goes with COC(=O)c1nc(NC#N)[nH]c(=O)c1C ?
> 100 µM

What measured TGI goes with O=C([CH-]C(=O)c1ccccc1)c1ccccc1.O=C([CH-]C(=O)c1ccccc1)c1ccccc1.[Nd+3].[OH-].[OH3+] ?
34.9 µM

What measured TGI goes with COc1ccc(-c2nc(-c3ccccc3)c(-c3ccccc3)n2C2CC2)cc1OC1CCCC1 ?
> 165 µM

What measured TGI goes with CCC1(N=[N+]=[N-])C(=O)Nc2cc(C)ccc2C1=O (configuration not stated) ?
> 100 µM

###

Tested on: BT-549 breast
Test: NCI tumour cell line growth inhibition, 48 h
Listed below: TGI values for each entry.
Just the number in µM, nothing appended.

MOLECULE: C=C1C(=O)OC2CC3(CO3)C3C(O)C(O)CC3(C)CC12 (stereo not drawn)
MEASURE: TGI
MEAS_VALUE: 33.9
//
MOLECULE: O=C(C(Br)Br)C(Br)C(Br)c1ccccc1 (stereo not drawn)
MEASURE: TGI
MEAS_VALUE: 14.1
//
MOLECULE: C[C@]12CC(c3ccccc3O1)C(C(=O)NC13CC4CC(CC(C4)C1)C3)C(=O)N2 (stereo partly drawn)
MEASURE: TGI
MEAS_VALUE: 61.8
//
MOLECULE: COc1cc2cc(C(=O)N3CC(CCl)c4ccc(NCCN)cc43)[nH]c2c(OC)c1OC (stereo not drawn)
MEASURE: TGI
MEAS_VALUE: 1.94

What measured TGI goes with O=[N+]([O-])c1cccc2nccc(NCC(O)CO)c12 (stereo not drawn) ?
29.6

What measured TGI goes with O=c1cc(-c2ccccc2)nc2n1CCN2Cc1ccccc1 ?
67.2

###

Listed below: GI50 values for each entry.
Tested on: CCRF-CEM leukemia
Assay: NCI tumour cell line growth inhibition, 48 h

Below, each entry is followed by its recorded GI50 result.
CHEM_SMILES: CCN(CC)CCCCCCCNc1c2ccc(Cl)cc2nc2ccc(OC)cc12
TEST_TARGET: CCRF-CEM leukemia
GI50: 0.619 µM
--
CHEM_SMILES: CC[N+](CC)(CC)CCCn1c2c(c3ccccc3c1=O)C(=O)c1ccccc1-2
TEST_TARGET: CCRF-CEM leukemia
GI50: 2.99 µM
--
CHEM_SMILES: N=C(N)CCCCCCCCC(=N)N
TEST_TARGET: CCRF-CEM leukemia
GI50: 44.6 µM

// next entry
What measured GI50 goes with Cc1ccc2c(=O)c3cccc(CC(=O)O)c3oc2c1C ?
> 100 µM

###

Test system: MDA-MB-435
MEASURE: GI50

Below, each entry is followed by its recorded GI50 result.
COMPOUND: Nc1ccccc1C#C/C=C\C#Cc1ccc(Cl)cc1Cl
TEST_TARGET: MDA-MB-435
GI50: 2.41 µM

COMPOUND: O=C(NC(=S)Nc1ccc(Cl)cc1)c1ccccc1
TEST_TARGET: MDA-MB-435
GI50: > 100 µM

COMPOUND: CN(C)CCCNC(=O)c1cc(NC(=O)c2cc(NC(=O)c3cc(NC(=O)CCc4c[nH]c5ccccc45)cn3C)cn2C)cn1C
TEST_TARGET: MDA-MB-435
GI50: > 100 µM

COMPOUND: CCN(CC)CCOc1ccc(/C=C2\CC3C4CC=C5C[C@@H](N6CCCC6)CC[C@]5(C)C4CC[C@]3(C)[C@H]2O)cc1OC (some centres undefined)
TEST_TARGET: MDA-MB-435
GI50: 3.86 µM

COMPOUND: O=C1CCC2(C=C(Br)C(=O)C(Br)=C2)O1
TEST_TARGET: MDA-MB-435
GI50: 4.84 µM

COMPOUND: COc1cc(/C=C/C(=O)c2ccc(Cl)cc2)ccc1OS(=O)(=O)c1ccc(C)cc1
TEST_TARGET: MDA-MB-435
GI50: 2.74 µM

Under MDA-MB-435: GI50 value of Cc1[nH]c(/C=C2\C(=O)Nc3ccc(F)cc32)c(C)c1C(=O)NC[C@H](O)CN1CCOCC1 ?
3.2 µM

Under MDA-MB-435: GI50 value of COc1nc(C)cc2c(=O)n(-c3ccccc3)n(CCCN3CCN(c4ccc(Cl)cc4)CC3)c(=O)c12 ?
> 50 µM

Under MDA-MB-435: GI50 value of Cc1cc(S(=O)(=O)Nc2nnc(-c3ccccc3)c(-c3ccccc3)n2)c(SCc2ccccc2)cc1Cl ?
21.7 µM

###

Test system: SK-MEL-2 melanoma
Experiment: NCI tumour cell line growth inhibition, 48 h
Listed below: TGI values for each entry.

COMPOUND: O=C1CCCc2cc3c(cc21)CCC3C(=O)O (stereo unspecified)
TEST_TARGET: SK-MEL-2 melanoma
MEASURE: TGI
MEAS_VALUE: > 100 µM

// next entry
What measured TGI goes with Cc1cc2c(s1)C(=O)c1sccc1C2=O ?
1.33 µM

###

Test system: UO-31 renal
Assay: NCI tumour cell line growth inhibition, 48 h
Listed below: TGI values for each entry.

COMPOUND: ON=C1CCC(c2ccccc2)CC1 (configuration not stated)
TGI: > 100 µM
--
COMPOUND: CC(C)CCC[C@@H](C)C1CCC2[C@@H]3CCC4CC(CCC=C(c5cc(Cl)c(OC(=O)c6ccccc6)c(C(=O)O)c5)c5cc(Cl)c(OC(=O)c6ccccc6)c(C(=O)O)c5)CC[C@]4(C)C3CC[C@@]21C (some centres not stated)
TGI: > 100 µM
--
COMPOUND: CC(C)/C=N\n1c(N)c(C#N)c(C#N)c1C(C)C
TGI: 64.2 µM
--
COMPOUND: O=C1N=C(c2ccccc2)O/C1=C\c1ccccc1
TGI: > 100 µM
--
COMPOUND: CC1(C)C(=O)N=C(N)N1C(=O)OCc1ccccc1
TGI: > 100 µM
--
COMPOUND: CC(=O)N1c2ccccc2Sc2cc(C(O)(C(F)(F)F)C(F)(F)F)ccc21
TGI: > 10 µM
--
COMPOUND: N#C/C=C1\C=CC(O)C(O)C1OC1OC(CO)C(O)C(O)C1O (configuration not stated)
TGI: > 100 µM
--
COMPOUND: CCOC(=O)c1c(NC(=O)Nc2ccccc2)c(C(N)=O)c2n1CCCCC2
TGI: > 100 µM
--
COMPOUND: CCOC(=O)n1cncc1CC(NC(=O)Cc1c(C(=O)C=C(C)C)[nH]c2ccccc12)C(=O)OC (configuration not stated)
TGI: 32.3 µM
--
COMPOUND: O=C(Nc1ncc(Cc2ccccc2Cl)s1)c1ccc2c(c1)OCCO2
TGI: > 100 µM

Under UO-31 renal: TGI value of C[C@]12CC[C@@H]3c4ccc(O)cc4CC[C@H]3[C@@H]1CC[C@@H]2NS(=O)(=O)Cc1ccc(Cl)cc1 ?
5.13 µM

Under UO-31 renal: TGI value of Cc1cc2oc(=O)[nH]c(=S)c2c(C)c1C ?
> 100 µM

Under UO-31 renal: TGI value of COc1ccc2c3ccc4c(c3n(C)c2c1)C(=O)c1ccccc1C4=O ?
> 100 µM

Under UO-31 renal: TGI value of O=c1cc2ccccc2nn1-c1ccccc1Cl ?
96.6 µM

Under UO-31 renal: TGI value of COC(=O)c1c(C(=O)OC)c2cc(C(=O)c3ccccc3)ccn2c1Cl ?
89.8 µM

Under UO-31 renal: TGI value of CCCNC(=S)/N=C\c1c(O)c2ccccc2oc1=O ?
> 100 µM

Under UO-31 renal: TGI value of CC(=O)OCC1OC(O[C@@H]2c3c(O)c4c(c(O)c3C3=C(NN(c5ccc([N+](=O)[O-])cc5[N+](=O)[O-])[Se]3=O)[C@@]2(C)O)C(=O)c2ccccc2C4=O)C(OC(C)=O)C(OC(C)=O)C1OC(C)=O (some centres not stated) ?
0.548 µM

Under UO-31 renal: TGI value of Oc1cc2cccc[n+]2c2cccc(Cl)c12 ?
93 µM

Under UO-31 renal: TGI value of COc1c(O)ccc2c1CN1CCc3cc4c(cc3C1C2)OCO4 (configuration not stated) ?
> 100 µM

Under UO-31 renal: TGI value of CC(C)CC1c2[nH]c3ccccc3c2C[C@H]2C(=O)NC(CCC(=O)OC(C)(C)C)C(=O)N12 (some centres not stated) ?
> 100 µM

###

System: ACHN renal
Test: NCI tumour cell line growth inhibition, 48 h
Listed below: GI50 values for each entry.

Below, each entry is followed by its recorded GI50 result.
CHEM_SMILES: O=C1c2ccccc2-c2c1c1ccccc1c(=O)n2CCCN1CCOCC1
GI50: 10.7 µM
//
CHEM_SMILES: OCCCCC#Cc1ccccc1C#Cc1ccccc1C(F)(F)F
GI50: 11.4 µM
//
CHEM_SMILES: COc1ccc2[nH]c(Cl)c(/C=C3/C(=O)N(C)c4ccccc43)c2c1
GI50: > 100 µM

Under ACHN renal: GI50 value of O=[N+]([O-])/C=C/c1c[nH]c2ccccc12 ?
17.1 µM

Under ACHN renal: GI50 value of Cc1cc2c(F)c(Oc3ncnn4cc(OC[C@@H](C)OC(=O)[C@H](C)N)c(C)c34)ccc2[nH]1 ?
8.85 µM

Reference for the values: PubChem BioAssay (NCI)
